test_readout: MDR1-MDCK efflux ratio

Guide cases for MDR1-MDCK efflux ratio, answers given:
Cc1nn(-c2ccccn2)c2nc(C3CC3)cc(C(=O)O)c12 ... 2.52
CC(C)c1nnc(-c2ccc(-c3ccccc3)nc2)n1-c1cccc2nonc12 ... 4.09

a: CC(=O)NC1CCC(NCCSc2ccc(C)cc2)CC1 (stereo unspecified)
b: Cc1cc(C)n(CCNC(=O)NC2CCOCC2)n1
c: COc1ccc(CNC(=O)CCCOc2ccc(C(C)=O)cc2)cc1
d: CCc1c(N)cnn1-c1ccccc1C
Ask: Task field, ranking: reported MDR1-MDCK efflux ratio, descending order. A ranking is expressed here by listing the labels in the requested order.
Reply: b, a, c, d
(b: 28.3, a: 10.8, c: 1.02, d: 0.677)
